Reported CGM (Fungicidal Activities, C.V.) values for a set of molecules
- Test system: Botrytis cinerae
- experimental-details: Fungicidal activity against Cucumber Gray Mold Rot (CGM) disease
- Format: in vivo
- test-settings: Cucumber Gray Mold Rot; concentration 50 ppm
Numbers only; they are read as %.

Examples with answers:
molecule: COC=C(C(=O)OC)c1ccccc1CON=Cc1cccc(OC(F)=Cc2cccc(F)c2)c1 [Compound 11]
CGM (Fungicidal Activities, C.V.), %: 17
--
molecule: COC=C(C(=O)OC)c1ccccc1CON=Cc1cccc(OC(F)=Cc2ccc(OC)cc2)c1 [Compound 9]
CGM (Fungicidal Activities, C.V.), %: 53
--
molecule: COC=C(C(=O)OC)c1ccccc1CON=C(C)c1cccc(OC(F)=Cc2cccc(C)c2)c1 [Compound 41]
CGM (Fungicidal Activities, C.V.), %: 51

Qu. Please look up its CGM (Fungicidal Activities, C.V.): CNC(=O)C(=NOC)c1ccccc1CON=Cc1cccc(OC(F)=C(c2ccc(F)cc2)C(F)(F)F)c1 [Compound 145]
Ans. 0

====

- Tested on: Rhizoctonia solani AG-1
- experimental-details: Fungicidal activity against Rice Sheath Blight (RSB) disease
- test-settings: Rice Sheath Blight; concentration 10 ppm
// reported RSB (Fungicidal Activities, C.V.) for each item listed
Hi! Could you send only the number? It should be in %, unit omitted.

Here is how some compounds turned out for RSB (Fungicidal Activities, C.V.).
compound: COC=C(C(=O)OC)c1ccccc1CON=C(C)c1cccc(OC(F)=C(c2ccc(C)cc2)C(F)(F)F)c1 [Compound 152]
observed-measurement: 60
//
compound: COC=C(C(=O)OC)c1ccccc1CON=C(C)c1cccc(OC(F)=Cc2ccc(F)cc2)c1 [Compound 51]
observed-measurement: 88
//
compound: COC=C(C(=O)OC)c1ccccc1CON=C(C)c1cccc(OC(F)=Cc2ccc(Cl)cc2)c1 [Compound 54]
observed-measurement: 80

Qu. Test system Rhizoctonia solani AG-1; read-out RSB (Fungicidal Activities, C.V.); what value for CO/C=C(/C(=O)OC)c1ccccc1CON=C(C)c1cccc(OC(F)=Cc2ccccc2)c1 [Compound 40] ?
Ans. 75

====

- Test system: Erysiphae graminis
- experimental-details: Fungicidal activity against Barley Powdery Mildew (BPM) disease
- Assay type: in vivo
- test-settings: Barley Powdery Mildew; concentration 10 ppm
property: BPM (Fungicidal Activities, C.V.) (%)
Answer with a number only, understood to be in %.

Solved entries (count: 6):
smiles-data: COC=C(C(=O)OC)c1ccccc1CON=Cc1cccc(OC(F)=C(c2ccc(C)cc2)C(F)(F)F)c1
test-system: Erysiphae graminis
units-label: %
BPM (Fungicidal Activities, C.V.): 99
//
smiles-data: CCc1ccc(C=C(F)Oc2cccc(C=NOCc3ccccc3C(=COC)C(=O)OC)c2)cc1
test-system: Erysiphae graminis
units-label: %
BPM (Fungicidal Activities, C.V.): 99
//
smiles-data: COC=C(C(=O)OC)c1ccccc1CON=C(c1cccc(OC(F)=Cc2cccc(F)c2)c1)C(F)(F)F
test-system: Erysiphae graminis
units-label: %
BPM (Fungicidal Activities, C.V.): 97
//
smiles-data: COC=C(C(=O)OC)c1ccccc1CON=C(c1cccc(OC(F)=Cc2ccc(C)cc2)c1)C(F)(F)F
test-system: Erysiphae graminis
units-label: %
BPM (Fungicidal Activities, C.V.): 92
//
smiles-data: COC=C(C(=O)OC)c1ccccc1CON=C(c1cccc(OC(F)=Cc2ccc3c(c2)OCO3)c1)C(F)(F)F
test-system: Erysiphae graminis
units-label: %
BPM (Fungicidal Activities, C.V.): 100
//
smiles-data: CON=C(C(=O)OC)c1ccccc1CON=C(C)c1cccc(OC(F)=Cc2ccc(C)cc2)c1
test-system: Erysiphae graminis
units-label: %
BPM (Fungicidal Activities, C.V.): 100

Qu. Report BPM (Fungicidal Activities, C.V.) for "COC=C(C(=O)OC)c1ccccc1CON=C(C)c1cccc(OC(F)=C(c2ccc(F)cc2)C(F)(F)F)c1" please.
Ans. 100

Qu. Another molecule to look at: "COC=C(C(=O)OC)c1ccccc1CON=C(C)c1cccc(OC(F)=C(c2ccc(C)cc2)C(F)(F)F)c1"
Ans. 100

Qu. What do you get for "CCCCc1ccc(C(=C(F)Oc2cccc(C(C)=NOCc3ccccc3C(=COC)C(=O)OC)c2)C(F)(F)F)cc1" ?
Ans. 91

Qu. Quick one: "COC=C(C(=O)OC)c1ccccc1CON=C(C)c1cccc(OC(F)=Cc2ccc3ccccc3c2)c1"
Ans. 100

====

- Test system: Botrytis cinerae
- experimental-details: Fungicidal activity against Cucumber Gray Mold Rot (CGM) disease
- Type: in vivo
- test-settings: Cucumber Gray Mold Rot; concentration 50 ppm
property: CGM (Fungicidal Activities, C.V.)
Give the number first and the unit second.

molecule: CON=C(C(=O)OC)c1ccccc1CON=C(C)c1cccc(OC(F)=Cc2ccc(OC)cc2)c1 [Compound 72]
observed-measurement: 0%
//
molecule: COC=C(C(=O)OC)c1ccccc1CON=Cc1cccc(OC(F)=Cc2cccc(C)c2)c1 [Compound 2]
observed-measurement: 17%
//
molecule: COC=C(C(=O)OC)c1ccccc1CON=Cc1cccc(OC(F)=Cc2ccc(Cl)cc2)c1 [Compound 14]
observed-measurement: 7%

Qu. I would be grateful if you could share the reported CGM (Fungicidal Activities, C.V.) for COC=C(C(=O)OC)c1ccccc1CON=C(C)c1cccc(OC(F)=C(c2cccc(F)c2)C(F)(F)F)c1 [Compound 159] .
Ans. 52%

Qu. One more molecule: COC=C(C(=O)OC)c1ccccc1CON=C(C)c1cccc(OC(F)=C(c2ccc(C)c(C)c2)C(F)(F)F)c1 [Compound 153]
Ans. 20%

Qu. Queued: CNC(=O)C(=NOC)c1ccccc1CON=Cc1cccc(OC(F)=C(c2cccc(OC)c2)C(F)(F)F)c1 [Compound 143]
Ans. 0%

====

This listing pairs compounds with measured CGM (Fungicidal Activities, C.V.).
- System: Botrytis cinerae
- experimental-details: Fungicidal activity against Cucumber Gray Mold Rot (CGM) disease
- Assay type: in vivo
- test-settings: Cucumber Gray Mold Rot; concentration 50 ppm
State just the number; it will be interpreted in %.

Known CGM (Fungicidal Activities, C.V.) results, listed for orientation:
compound: COC=C(C(=O)OC)c1ccccc1CON=Cc1cccc(OC(F)=C(c2ccc(Br)cc2)C(F)(F)F)c1 [Compound 118]
units-label: %
CGM (Fungicidal Activities, C.V.): 36
--
compound: COC=C(C(=O)OC)c1ccccc1CON=C(C)c1cccc(OC(F)=C(c2cccc(OC)c2)C(F)(F)F)c1 [Compound 157]
units-label: %
CGM (Fungicidal Activities, C.V.): 68
--
compound: CCc1ccc(C=C(F)Oc2cccc(C=NOCc3ccccc3C(=NOC)C(=O)NC)c2)cc1 [Compound 33]
units-label: %
CGM (Fungicidal Activities, C.V.): 0

Qu. Consider the compound CNC(=O)C(=NOC)c1ccccc1CON=Cc1cccc(OC(F)=Cc2cccc(C)c2)c1 [Compound 31] and give its measured CGM (Fungicidal Activities, C.V.).
Ans. 25

Qu. Check CCc1ccc(C=C(F)Oc2cccc(C(C)=NOCc3ccccc3C(=NOC)C(=O)OC)c2)cc1 [Compound 69] too.
Ans. 25

Qu. Request: CON=C(C(=O)OC)c1ccccc1CON=C(C)c1cccc(OC(F)=Cc2cccc(C)c2)c1 [Compound 65]
Ans. 71

Qu. CNC(=O)C(=COC)c1ccccc1CON=C(C)c1cccc(OC(F)=Cc2ccc(Cl)c(C)c2)c1 [Compound 61] , same question.
Ans. 33

====

- System: Erysiphae graminis
- experimental-details: Fungicidal activity against Barley Powdery Mildew (BPM) disease
- Assay type: in vivo
- test-settings: Barley Powdery Mildew; concentration 50 ppm
property: BPM (Fungicidal Activities, C.V.) (%)
Give your result in % as a bare value.

Known BPM (Fungicidal Activities, C.V.) results, listed for orientation:
smiles-data: CON=C(C(=O)OC)c1ccccc1CON=C(C)c1cccc(OC(F)=Cc2ccc(OC)cc2)c1
test-system: Erysiphae graminis
property: BPM (Fungicidal Activities, C.V.)
observed-measurement: 100
--
smiles-data: CCc1ccc(C=C(F)Oc2cccc(C=NOCc3ccccc3C(=NOC)C(=O)NC)c2)cc1
test-system: Erysiphae graminis
property: BPM (Fungicidal Activities, C.V.)
observed-measurement: 100
--
smiles-data: COC=C(C(=O)OC)c1ccccc1CON=C(C)c1cccc(OC(F)=Cc2cc(C)cc(C)c2)c1
test-system: Erysiphae graminis
property: BPM (Fungicidal Activities, C.V.)
observed-measurement: 100

Qu. Suppose we examine the compound "COC=C(C(=O)OC)c1ccccc1CON=C(C)c1cccc(OC(F)=C(c2cc(C)cc(C)c2)C(F)(F)F)c1" ; what BPM (Fungicidal Activities, C.V.) value has been reported?
Ans. 100

Qu. // query: "COC=C(C(=O)OC)c1ccccc1CON=Cc1cccc(OC(F)=C(c2ccc(C)cc2)C(F)(F)F)c1"
Ans. 100

Qu. For "CON=C(C(=O)OC)c1ccccc1CON=C(C)c1cccc(OC(F)=Cc2cc(C)cc(C)c2)c1" then?
Ans. 100

Qu. Then what about the compound "COC=C(C(=O)OC)c1ccccc1CON=C(C)c1cccc(OC(F)=C(c2ccc(C)c(C)c2)C(F)(F)F)c1" ?
Ans. 100

Qu. Now consider "CON=C(C(=O)OC)c1ccccc1CON=C(C)c1cccc(OC(F)=Cc2ccc(F)cc2)c1" and answer again.
Ans. 100

Qu. Also, "COC=C(C(=O)OC)c1ccccc1CON=C(C)c1cccc(OC(F)=Cc2ccc(F)cc2)c1" please.
Ans. 100

Qu. # repeat for "CO/N=C(/C(=O)OC)c1ccccc1CON=C(C)c1cccc(OC(F)=Cc2ccccc2)c1"
Ans. 100

Ref: patent US6552080B1
